test system: Pr. morganii A.236; assay: M.I.C. in vitro, nutrient agar dilution; type: cell-based; conditions: Morganella morganii, 18 h; Table III; Pr. morganii A. 236; read-out: M.I.C.
observable: MIC

Sample answers from the record:
1. C=CCn1cc(C(=O)O)c(=O)c2cc(F)c(N3CCN(C)CC3)cc21 [Example 34] | 0.05 to 0.2 µg/mL
2. C=CCN1CCN(c2cc3c(cc2F)c(=O)c(C(=O)O)cn3CC)CC1 [Example 23] | 0.2 µg/mL
3. C=Cn1cc(C(=O)O)c(=O)c2cc(F)c(N3CCOCC3)cc21 [Example 42] | 0.2 µg/mL
4. CN1CCN(c2cc3c(cc2F)c(=O)c(C(=O)O)cn3C)CC1 [Example 31] | 0.2 µg/mL
5. C=Cn1cc(C(=O)O)c(=O)c2cc(F)c(N3CCN(C)CC3)cc21 [Example 41] | 0.05 µg/mL
6. CCn1cc(C(=O)O)c(=O)c2cc(F)c(N3CCNCC3)cc21 [Example 22] | 0.05 µg/mL

Consider the additional molecule presented here.
Entry Cn1cc(C(=O)O)c(=O)c2cc(F)c(N3CCNCC3)cc21 [Example 32] : reported MIC = ?
0.2 µg/mL
